Reported pIC50 values for the following compounds.
Target: TDP1 (148–608) (Homo sapiens, UniProt Q9NUW8)
Construct: was incubated with recombinant full-length TDP1 or TDP1 (148–608) (40 p.m.)
Sequence (Q9NUW8 148-608): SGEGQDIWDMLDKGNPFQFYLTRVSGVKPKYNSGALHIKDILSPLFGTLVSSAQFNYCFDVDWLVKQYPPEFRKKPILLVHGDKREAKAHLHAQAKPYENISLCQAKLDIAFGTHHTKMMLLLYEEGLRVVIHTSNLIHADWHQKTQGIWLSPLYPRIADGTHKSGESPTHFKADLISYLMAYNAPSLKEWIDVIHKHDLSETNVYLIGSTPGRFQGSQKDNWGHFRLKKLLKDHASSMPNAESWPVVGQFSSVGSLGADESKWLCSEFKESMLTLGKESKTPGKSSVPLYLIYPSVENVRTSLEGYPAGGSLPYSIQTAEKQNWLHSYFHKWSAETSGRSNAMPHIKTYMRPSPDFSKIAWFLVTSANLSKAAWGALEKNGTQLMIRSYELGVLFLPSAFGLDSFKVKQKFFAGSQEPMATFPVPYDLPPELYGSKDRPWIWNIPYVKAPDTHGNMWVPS
Experiment: Gel-based fluorescence assay of TDP1-catalyzed hydrolysis, truncated TDP1 (148–608)
Settings: truncated TDP1 (148–608) catalytic domain; 5′-Cy5 N14Y DNA substrate; 15 min, room temperature; repeated three times
Please keep in mind that pIC50 is minus log10 of the molar concentration; only the number is needed.

Solved cases below.
> print(dat)
                                smiles.repr  test.result
1  O=P(O)(O)Cc1ccc(Nc2c(-c3ccccc3)nc3cc(-c4ccccc4)ccn23)cc1         2.93
2  O=P(O)(O)Cc1ccc(Nc2c(-c3ccccc3)nc3cnccn23)cc1         2.36
3  O=P(O)(O)c1ccc(Nc2c(-c3ccccc3O)nc3cc(-c4ccccc4)ccn23)cc1         3.22
4  O=P(O)(O)c1ccc(Nc2c(-c3ccccc3)nc3cnccn23)cc1         2.33

Ask | Give the reported value of pIC50 for this record: O=P(O)(O)c1ccc(Nc2c(-c3ccccc3O)nc3ccccn23)cc1
Reply | 2.35

Ask | Give the reported value of pIC50 for this record: O=P(O)(O)Cc1ccc(Nc2c(-c3ccccc3)nc3ccccn23)cc1
Reply | 2.32

Ask | Give the reported value of pIC50 for this record: O=P(O)(O)c1ccc(Nc2c(-c3ccccc3)nc3cc(-c4ccccc4)ccn23)cc1
Reply | 3.65

Ask | Give the reported value of pIC50 for this record: O=P(O)(O)c1ccc(Nc2c(-c3ccccc3)nc3ccccn23)cc1
Reply | 2.42
